Readings of pKd for the listed binders
Target: T1, Recombinant human PDGF-BB (human, UniProt P01127 82-190)
T1 construct: For SPR it was chemically biotinylated on primary amines and captured on neutravidin; also called PDGF-BB (human); Reliatech 200-055
T1 sequence (P01127 82-190 limits assumed): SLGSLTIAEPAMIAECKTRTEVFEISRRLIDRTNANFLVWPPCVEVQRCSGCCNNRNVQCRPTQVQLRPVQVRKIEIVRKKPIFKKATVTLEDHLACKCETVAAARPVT
Test: SPR (ProteOn), biotinylated PDGF-BB on neutravidin chip, DARPin injected; Kd from on- and off-rates
pKd: −log10 of the molar value.
Parameter: pKd

Binder	Recorded Measurement
DARPin #47 (designed binder) MRGSHHHHHHGSDLGKKLLEAARAGQDDEVRILLKAGADVNAKDKSGHTPLHLAAYSGHLEIVEVLLKAGADVNAKDQEGTTPLHFAASVGHLEIVEVLLKAGADVNAQDHYGATPADLAALIGHEDIAEVLQKLN	10.03
DARPin #36 (designed binder) MRGSHHHHHHGSDLGSKLLTAALDGQDDEVRILLAAGADVNAKDEEGTTPLHYAAVVGHLEIVEVLLKAGADVNAQDIWGATPADLAALVGHEDIAEVLQKLN	10.62
DARPin #58 (designed binder) MRGSHHHHHHGSDLGKKLLEAARAGQDDEVRELLKAGADVNAKDLNGQTPLHLAADIGHLEIVEVLLKAGADVNAKDYAGSTPLRLAAWAGHLEIVEVLLKAGADVNAKDYFGYTPLHLAAYFGHLEIVEVLLKAGADVNAQDKSGKTPADLAADAGHEDIAEVLQKLN	9.59
DARPin #26 (designed binder) MRGSHHHHHHGSDLGKKLLEAARAGQDDEVRILLAAGADVNAKDEEGTTPLHYAAVWGHLEIVEVLLKAGADVNAQDIYGATPADLAALVGHEDIAEILQKLN	10.75
DARPin #59 (designed binder) MRGSHHHHHHGSDLGKKLLEAARAGQGDEVHILMANGADVNAQDLNGQTPLHLAADIGHLEIVEVLLKHGADVNAQDYAGSTPLRLAAWAGHLEIVEVLLKNGADVNANDYFGYTPLHLAAYFGHLEIVEVLLKHGADVNAQDKFGKTAFDISIDNGNEDLAEILQKLN	9.77
DARPin #54 (designed binder) MRGSHHHHHHGSDLGKKLLEAARAGQDDEVRILMANGADVNAKDLNGQTPLHLAADIGHLEIVEVLLKAGADVNAKDYAGSTPLRLAAWAGHLEIVEVLLKAGADVNAKDYFGYTPLHLAAYFGHLEIVEVLLKAGADVNAQDKSGKTPADLAADAGHEDIAEVLQKLN	9.61
DARPin #43 (designed binder) MRGSHHHHHHGSDLGLKLLEAAQRGQDDEVRILLAAGADVNAKDREGWTPLHVAAYEGHLEIVEVLLKAGADVNAKDYTGLTPLHVAAVWGHLEIVEVLLKAGADVNAQDIYGATPADLAAYIGHEDIAEVLQKLN	5.89
DARPin #49 (designed binder) MRGSHHHHHHGSDLGKKLLEAARAGQDDEVRILMANGADVNAQDLNGQTPLHLAADIGHLEIVEVLLKHGADVNAQDYAGSTPLRLAAWAGHLEIVEVLLKNGADVNANDYFGYTPLHLAAYFGHLEIVDVLLKHGADVNAQDKFGKTAFDISIDNGNEDLAEILQKLN	10.11
DARPin #28 (designed binder) MRGSHHHHHHGSDLGKKLLEAARAGQDDEVRILMANGADVNAKDEEGTTPLHYAAVWGHLEIVEVLLKAGADVNAQDIYGATPADLAALVGHEDIAEVLQKLN	10.77
DARPin #53 (designed binder) MRGSHHHHHHGSDLDKKLLEAARAGQDDEVRILMANGADVNAKDLNGQTPLHLAADIGHLEIVEVLLKAGADVNAKDYAGSTPLRLAAWAGHLEIVEVLLKAGADVNAKDYFGYTPLHLAAYFGHLEIVEVLLKAGADVNAQDKFGKTPADIAADNGHEDIAEVLQKLN	9.89

Source of measurements: patent US20140005125A1
